Assay: Stability in water
Assay type: physicochemical
Details: ultra-pure Milli-Q water
Method: Stability in water was carried out by incubating each candidate in ultra-pure, Milli-Q water (Millipore Corporation). Again, volumes, times and preparation protocols were exactly as described above in plasma stability method above.
Square brackets hold non-standard residues; d marks the D form. Peptide text beside a SMILES is read from it. Sar = CNCC(=O)O
Quick reference: half-life at 100 µM of the listed items.

# annotated cases, reported half-life at 100 µM shown
CC(C)C[C@@H](NC(=O)[C@@H](Cc1ccccc1)NC(=O)[C@H](N)Cc1ccccc1)C(=O)N[C@H](CCCCN)C(=O)N1CCC(N)(C(=O)O)CC1 [SEQ ID NO. 35, DPhe-DPhe-DLeu-DLys-Cap-CO2H, reference compound] = > 16.7 h
CC(C)C[C@H](NC(=O)[C@H](Cc1ccccc1)NC(=O)CN(C)C(=O)[C@@H](N)Cc1ccc(O)cc1)C(=O)N[C@@H](CCCNC(=N)N)C(=O)N[C@@H](CCCNC(=N)N)C(N)=O [SEQ ID NO. 2, NH2-Tyr-Sar-Phe-Leu-Arg-Arg-NH2] (H-Y[Sar]FLRR-NH2) = > 16.7 h

Okay, now this compound:
Task item: Can you look up the measured half-life at 100 µM of CC(C)C[C@H](NC(=O)[C@H](Cc1ccccc1)NC(=O)CNC(=O)CNC(=O)[C@@H](N)Cc1ccc(O)cc1)C(=O)N[C@@H](CCCNC(=N)N)C(=O)N[C@@H](CCCNC(=N)N)C(=O)O [SEQ ID NO. 38, Tyr-Gly-Gly-Phe-Leu-Arg-Arg, reference compound] for me?
Reply: > 16.7 h

These entries and their values trace back to patent US20240301023A1.
